ASSAY NOTES: NCI Yeast Anticancer Drug Screen. Data for the cln2 rad14 strain (AID 165)
CONDITION PARAMETERS: S. cerevisiae cln2 rad14 strain, at 50.0 µM, hits give high values
About 79,000 compounds went through this panel and 15% of them were active in at least one assay; those are over-represented in the sample as a whole.
Threshold rule: growth inhibition greater than or equal to 90% is yes; below that, no.

MOLECULE: O=[N+]([O-])c1c(Cl)nc2ccccn12
CATEGORY: no

MOLECULE: CC1(C)CC(=O)C2=C(C1)OC1=C(CC(C)(C)CC1=O)C2c1ccccc1Cl (centres undefined)
CATEGORY: no

MOLECULE: CC(=O)OC1CCC2(C)C(CCC3C4CCC(OC(C)=O)C4(C)CCC32)O1 (centres undefined)
CATEGORY: no

MOLECULE: Cc1c(C)c(CCl)c(C)c(C)c1CCl
CATEGORY: no

MOLECULE: O=C1OC(c2ccc(O)cc2)(c2ccc(O)cc2)c2cccc3cccc1c23
CATEGORY: yes

MOLECULE: O=C(NCCCCCCNC(=O)n1cc(F)c(=O)[nH]c1=O)NCCCOCCOCCOCCOCCOCCOCCOCCOCCOCCOCCOCCOCCOCCOCCOCCOCCOCCOCCOCCOCCOCCCNC(=O)C(O)C(O)C(OC1OC(CO)C(O)C(O)C1O)C(O)CO (centres undefined)
CATEGORY: no

MOLECULE: COc1ccc(COc2ccc(C(=O)CCN3CCOCC3)cc2)cc1
CATEGORY: yes

MOLECULE: O=C1CSC(=S)N1c1ccc(Cl)c(C(F)(F)F)c1
CATEGORY: no

MOLECULE: O=C1c2ccccc2-n2c1nc1ccccc1c2=O
CATEGORY: no

MOLECULE: CCN(CC)c1ccc(C(=C2C=CC(=[N+](CC)CC)C=C2)c2ccc(N(CC)CC)cc2)cc1
CATEGORY: no

MOLECULE: O=[N+]([O-])c1c(Br)cc(Br)c2c1Nc1c(ccc(Cl)c1Cl)S2
CATEGORY: yes

MOLECULE: CC(=O)c1ccc2ccc3ccc(O)cc3c2c1
CATEGORY: no

MOLECULE: CCCCCCCCCCCCCCCCBr
CATEGORY: yes

MOLECULE: COC1/C=C/OC2(C)Oc3c(C)c(O)c4c(c3C2=O)C(=O)C=C(NC(=O)/C(C)=C\C=C\C(C)C2OC(C)(C)OC(C2C)C(C)C(OC(C)=O)C1C)C4=O (centres undefined)
CATEGORY: no

MOLECULE: O=[N+]([O-])C(/C=C(\Cl)[N+](=O)[O-])=C(Nc1ccccc1)Nc1ccccc1
CATEGORY: no

MOLECULE: O[Si](c1ccccc1)(c1ccccc1)c1ccccc1.O[Si](c1ccccc1)(c1ccccc1)c1ccccc1.O[Si](c1ccccc1)(c1ccccc1)c1ccccc1.[O]=[V]
CATEGORY: no

MOLECULE: Nc1ccc(Cn2ccc3c4c(N)nc(N)nc4ccc32)cc1
CATEGORY: no

Entry source: PubChem BioAssay (NCI)
